Assay: Stability of compound in presence of Porcine liver esterase assessed as residual activity at pH 7.4 measured after 4 hrs
Assay type: ADME
Conditions: pig, read-out: Stabilty
Reported property: remaining at 4 h
Please append the unit to your numeric answer.

Request: Specify reported remaining at 4 h for the molecule shown: `CC1(C)CC[C@]2(C(=O)OCc3ccccc3)CC[C@]3(C)C(=CC[C@@H]4[C@@]5(C)Cc6nccnc6[C@@](C)(COC(=O)CCC(=O)OCCOCCOCCOCCO)[C@@H]5CC[C@]43C)[C@@H]2C1`
Result: 98.3%

* * *

Test: Stability of compound in presence of Porcine liver esterase assessed as residual activity at pH 7.4 measured after 12 hrs
Format: ADME
Conditions: pig, read-out: Stabilty
Reported property: remaining at 12 h

Request: Please list remaining at 12 h recorded for the molecule `CC1(C)CC[C@]2(C(=O)OCc3ccccc3)CC[C@]3(C)C(=CC[C@@H]4[C@@]5(C)Cc6nccnc6[C@@](C)(COC(=O)CCC(=O)OCCOCCOCCOCCO)[C@@H]5CC[C@]43C)[C@@H]2C1`
Result: 81.8%
